Test system: HT29 colon
Test: NCI-60 one-dose screen, 48 h (100 = growth as untreated, 0 = no growth, -100 = all killed)
Conditions: 10 µM unless noted
Protocol: Growth inhibition of the HT29 human tumor cell line is measured as a screen for anti-cancer activity. Cells are grown in 96 well plates and exposed to the test compound for 48 hours. Compounds are tested at a single concentration, which is 10^-5 M for most compounds. The reported endpoint is percent growth (GI% or GIPRCNT), where numbers from 0 - 100% represent growth inhibition, and numbers from -100% - 0 represent cell death. For example, a value of 40 represents 60% growth inhibition. […]
Compounds without any hit were thinned out: in the full panel of roughly 83,000, 20% have a hit. The source made the active and inactive calls. The calls were made as follows: active = growth percent below 10; inactive = the rest.
PARAMETER_MEASURED: growth

# returns recorded growth (system: HT29 colon) for Cn1cc(-c2cc3ncnc(Nc4ccc(NC(=O)Nc5cc(C(C)(C)C)on5)cc4)c3s2)cn1 16.7% (inactive)

Return growth measured with HT29 colon given this compound: O=C(CN1CCN(c2cc(=O)[nH]c3ccc(F)cc23)CC1)N(c1ccccc1)c1ccccc1 110% (inactive)

Request body: readout growth, system HT29 colon, query CC(=O)N1N=C(c2cc3ccccc3oc2=O)CC1c1cn(-c2ccccc2)nc1-c1ccc(C)cc1 (stereo not given) . Return the value. 108% (inactive)

Record O=C(CSc1nnc(-c2ccc(Cl)cc2)n1-c1ccccc1)Nc1ccccc1Cl : what is its growth with HT29 colon? 67.5% (inactive)

API: value(readout=growth, system=HT29 colon) for record Cn1cc(-c2cc3ncnc(Nc4ccc(CC(=O)Nc5nc(C(C)(C)C)cs5)cc4)c3s2)cn1 49.9% (inactive)
